Every entry's value here was drawn from ChEMBL document CHEMBL4619812.

molecular target: Tryptophan 2,3-dioxygenase (Homo sapiens, UniProt P48775); assay: Inhibition of TDO in human SW48 cells using L-tryptophan as substrate incubated for 48 hrs by fluorescent microplate reader assay; assay type: cell-based
Sequence (P48775 whole entry): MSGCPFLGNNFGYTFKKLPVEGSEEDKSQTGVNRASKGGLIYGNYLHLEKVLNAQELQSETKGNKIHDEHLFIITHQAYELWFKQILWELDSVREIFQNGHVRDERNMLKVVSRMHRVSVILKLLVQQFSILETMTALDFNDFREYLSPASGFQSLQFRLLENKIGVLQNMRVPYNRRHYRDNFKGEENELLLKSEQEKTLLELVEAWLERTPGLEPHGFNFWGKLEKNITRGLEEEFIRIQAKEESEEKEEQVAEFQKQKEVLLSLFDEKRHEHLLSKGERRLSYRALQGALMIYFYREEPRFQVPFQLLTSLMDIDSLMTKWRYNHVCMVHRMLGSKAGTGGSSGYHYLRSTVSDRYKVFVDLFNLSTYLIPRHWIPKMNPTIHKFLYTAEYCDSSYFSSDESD
outcome-measure: IC50

>>> result("C[C@H](C(=O)Nc1ccc(F)cc1)C12CC(NC(=O)c3ccc(F)c(F)c3)(C1)C2")
"> 10 µM"

Now look at this entry.
Problem: Fetch value of IC50 on Tryptophan 2,3-dioxygenase (Homo sapiens, UniProt P48775) for "C[C@H](C(=O)Nc1ccc(F)cc1)C12CC(NC(=O)c3cccc(Cl)c3)(C1)C2" .
Result: > 10 µM

----------
assay: Clearance in dog; type: ADME, Canis lupus familiaris; settings: in vivo
outcome-measure: clearance (mL/min/kg)
Could you give me the number in mL/min/kg? Just the number is fine.

Problem: Read the entry "C[C@H](C(=O)Nc1ccc(F)cc1)C12CC(NC(=O)c3ccc(F)c(F)c3)(C1)C2" and write its reported clearance.
Result: 1.1
